# measured on: T1, 4H605-AA
# T1 chain: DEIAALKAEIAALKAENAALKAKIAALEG
# assay: two-hybrid library CCmax;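 note: natural log of median RNA to DNA barcode read ratio; higher means stronger binding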
# experimental context: mean of both orientations
experimental readout: interaction score

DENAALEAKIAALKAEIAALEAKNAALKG [4H1352-AA]
-1.5
DKNAALKAEIAALEAKIAALKAENAALEG [4H3627-AA]
-1.4
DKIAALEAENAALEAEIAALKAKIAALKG [4H2190-AA]
-1.55
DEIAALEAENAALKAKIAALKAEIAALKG [4H234-AA]
-1.45
